Target: JAK3 enzyme (Homo sapiens, UniProt P52333)
Sequence (P52333 whole entry, species assumed): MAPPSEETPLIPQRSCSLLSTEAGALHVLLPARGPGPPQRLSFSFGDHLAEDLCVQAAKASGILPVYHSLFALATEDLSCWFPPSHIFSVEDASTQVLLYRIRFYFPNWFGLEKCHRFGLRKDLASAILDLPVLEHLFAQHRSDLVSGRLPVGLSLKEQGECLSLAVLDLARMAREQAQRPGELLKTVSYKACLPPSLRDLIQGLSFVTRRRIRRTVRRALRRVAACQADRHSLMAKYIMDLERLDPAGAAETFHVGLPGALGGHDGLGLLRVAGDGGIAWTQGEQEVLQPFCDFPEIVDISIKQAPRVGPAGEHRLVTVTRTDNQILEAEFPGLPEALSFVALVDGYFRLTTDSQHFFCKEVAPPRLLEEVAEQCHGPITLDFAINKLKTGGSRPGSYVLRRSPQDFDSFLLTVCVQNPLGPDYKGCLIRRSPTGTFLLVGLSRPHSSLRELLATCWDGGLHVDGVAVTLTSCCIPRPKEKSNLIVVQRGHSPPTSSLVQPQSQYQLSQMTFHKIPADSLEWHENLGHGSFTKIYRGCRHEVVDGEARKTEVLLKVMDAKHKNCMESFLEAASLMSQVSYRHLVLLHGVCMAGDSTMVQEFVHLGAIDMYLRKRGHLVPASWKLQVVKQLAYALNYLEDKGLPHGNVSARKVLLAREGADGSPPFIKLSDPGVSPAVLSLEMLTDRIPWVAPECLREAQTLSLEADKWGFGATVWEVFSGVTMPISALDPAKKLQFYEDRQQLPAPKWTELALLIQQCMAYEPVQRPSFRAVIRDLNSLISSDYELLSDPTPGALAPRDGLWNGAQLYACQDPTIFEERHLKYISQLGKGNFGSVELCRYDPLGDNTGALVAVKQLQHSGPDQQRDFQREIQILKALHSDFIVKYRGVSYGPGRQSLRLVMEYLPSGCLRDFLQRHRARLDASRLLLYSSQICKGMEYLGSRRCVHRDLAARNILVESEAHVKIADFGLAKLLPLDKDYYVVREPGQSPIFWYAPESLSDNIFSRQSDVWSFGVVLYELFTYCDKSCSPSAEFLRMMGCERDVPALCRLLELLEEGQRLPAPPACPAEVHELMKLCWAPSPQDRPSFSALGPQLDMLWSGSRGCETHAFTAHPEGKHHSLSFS
Assay: JAK Caliper Enzyme Assay at 4 μM ATP
Format: biochemical
readout kind: IC50 (nM)

>>> df
                                   molecule  readout_kind  number
0  C=CC(=O)N1CCN(c2cnc3[nH]cc(C(=O)N[C@@H](C)COCc4ccccc4)c3n2)CC1(C)C [Example 134]          IC50    12.4
1  C=CC(=O)N1CCN(c2cnc3[nH]cc(C(=O)N[C@H](C)COC)c3n2)CC1(C)C [Example 327]          IC50   0.546
2  C=CC(=O)N1CCC(C)(Nc2cnc3[nH]cc(C(=O)NCC(C)(F)F)c3n2)CC1 [Example 296]          IC50   0.519

a = C=CC(=O)N1CCC(Nc2cnc3[nH]cc(C(=O)NC[C@H](C)CC(F)(F)F)c3n2)CC1C (stereo partly shown) [Example 280]
b = C=CC(=O)N1C[C@H](Nc2ncnc3[nH]ccc23)CC[C@@H]1CNC(C)=O (racemic) [Example 88]
Between a and b , which one shows the smaller IC50 number? When you have decided, please share the label of that item. b
